Source: ChEMBL document CHEMBL1212833

Target entity: Histone-lysine N-methyltransferase EHMT2 (Homo sapiens, UniProt Q96KQ7)
Sequence (Q96KQ7 whole entry): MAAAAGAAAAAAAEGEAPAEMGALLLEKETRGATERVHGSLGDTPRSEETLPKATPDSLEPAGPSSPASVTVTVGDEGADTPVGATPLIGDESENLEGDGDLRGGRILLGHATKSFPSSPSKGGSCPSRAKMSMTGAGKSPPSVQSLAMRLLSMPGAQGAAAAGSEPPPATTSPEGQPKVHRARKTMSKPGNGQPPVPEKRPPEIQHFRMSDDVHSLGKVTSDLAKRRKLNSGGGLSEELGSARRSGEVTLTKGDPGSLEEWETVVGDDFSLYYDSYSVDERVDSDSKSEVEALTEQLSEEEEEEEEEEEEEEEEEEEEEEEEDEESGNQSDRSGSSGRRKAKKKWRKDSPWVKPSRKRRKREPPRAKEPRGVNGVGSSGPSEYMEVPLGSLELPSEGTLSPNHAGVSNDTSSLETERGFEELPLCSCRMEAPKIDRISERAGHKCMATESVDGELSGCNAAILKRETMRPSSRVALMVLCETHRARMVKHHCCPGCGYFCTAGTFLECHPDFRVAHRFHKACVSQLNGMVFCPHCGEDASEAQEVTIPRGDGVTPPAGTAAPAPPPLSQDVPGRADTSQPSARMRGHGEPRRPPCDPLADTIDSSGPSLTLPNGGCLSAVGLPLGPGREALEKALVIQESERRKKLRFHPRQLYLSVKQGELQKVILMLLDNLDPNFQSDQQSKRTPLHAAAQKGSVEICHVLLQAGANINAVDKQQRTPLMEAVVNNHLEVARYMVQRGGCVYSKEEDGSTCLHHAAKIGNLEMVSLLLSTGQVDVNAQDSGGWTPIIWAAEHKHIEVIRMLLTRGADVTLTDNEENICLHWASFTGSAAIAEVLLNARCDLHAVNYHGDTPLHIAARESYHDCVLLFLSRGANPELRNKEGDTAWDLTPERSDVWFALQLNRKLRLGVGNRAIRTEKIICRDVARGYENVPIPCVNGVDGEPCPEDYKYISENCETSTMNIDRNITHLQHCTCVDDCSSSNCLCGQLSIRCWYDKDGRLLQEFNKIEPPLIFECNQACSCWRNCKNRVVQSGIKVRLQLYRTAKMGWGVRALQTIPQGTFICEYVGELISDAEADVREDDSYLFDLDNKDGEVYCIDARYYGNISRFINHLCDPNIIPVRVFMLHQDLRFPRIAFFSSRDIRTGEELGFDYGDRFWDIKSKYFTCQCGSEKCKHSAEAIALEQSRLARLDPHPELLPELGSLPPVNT
Measurement notes: Inhibition of methyl transferase activity of G9a assessed as inhibition of H3K9 methylation by chemiluminescence based oxygen tunneling assay
Please go through the items and note down their pIC50.
// returns pIC50 (minus log10 of molar concentration), number only

Query block: Provide one value: measured pIC50 of COc1cc2c(NC3CCN(C)CC3)nc(N3CCCN(C)CC3)nc2cc1OCC1CCCNC1 (stereo not drawn)
Result block: 5.29

Query block: Provide one value: measured pIC50 of COc1cc2c(NC3CCN(C)CC3)nc(N3CCCN(C)CC3)nc2cc1OCCCCN(C)C
Result block: 6.96

Query block: Provide one value: measured pIC50 of COc1cc2c(NC3CCN(C)CC3)nc(N3CCCN(C)CC3)nc2cc1OCCCN1CCOCC1
Result block: 6.11

Query block: Provide one value: measured pIC50 of COc1cc2c(NC3CCN(C)CC3)nc(N3CCCN(C)CC3)nc2cc1OCCCCCN
Result block: 6.96

Query block: Provide one value: measured pIC50 of COc1cc2c(NC3CCN(C)CC3)nc(N3CCCN(C)CC3)nc2cc1OCCN(C)CCN(C)C
Result block: 6.76

Query block: Provide one value: measured pIC50 of COc1cc2c(NC3CCN(C)CC3)nc(N3CCCN(C)CC3)nc2cc1OCCOCCN(C)C
Result block: 8.22

Query block: Provide one value: measured pIC50 of COc1cc2c(NC3CCN(C)CC3)nc(N3CCCN(C)CC3)nc2cc1OCCOCCN1CCCC1
Result block: 6.96

###

Measurement notes: Activity at methyl transferase activity JMJD2E by formaldehyde dehydrogenase-coupled assay
pIC50: −log10 of the molar value.
Measure name: pIC50

Query block: Provide one value: measured pIC50 of COc1cc2c(NC3CCN(C)CC3)nc(N3CCCN(C)CC3)nc2cc1OCCCN(C)C
Result block: < 4.24

Query block: Provide one value: measured pIC50 of COc1cc2c(NC3CCN(C)CC3)nc(N3CCCN(C)CC3)nc2cc1OCCOCCN(C)C
Result block: < 4.24

###

Target entity: Protein arginine N-methyltransferase 3 (Homo sapiens)
Sequence (O60678 whole entry): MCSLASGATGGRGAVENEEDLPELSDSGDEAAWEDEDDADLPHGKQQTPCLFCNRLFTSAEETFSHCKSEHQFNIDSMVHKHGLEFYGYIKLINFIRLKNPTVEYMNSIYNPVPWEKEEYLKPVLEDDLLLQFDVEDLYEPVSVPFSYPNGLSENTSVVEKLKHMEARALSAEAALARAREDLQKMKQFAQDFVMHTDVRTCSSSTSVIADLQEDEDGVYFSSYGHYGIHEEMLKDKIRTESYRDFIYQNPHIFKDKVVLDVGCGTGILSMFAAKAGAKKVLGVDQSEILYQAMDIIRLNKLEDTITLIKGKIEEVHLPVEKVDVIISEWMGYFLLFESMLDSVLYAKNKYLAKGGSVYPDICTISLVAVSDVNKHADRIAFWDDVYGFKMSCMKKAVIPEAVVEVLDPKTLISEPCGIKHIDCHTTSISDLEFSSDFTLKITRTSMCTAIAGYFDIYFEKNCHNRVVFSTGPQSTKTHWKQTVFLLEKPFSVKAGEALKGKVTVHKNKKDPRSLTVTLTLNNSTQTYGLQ
Measure name: IC50

Query block: Provide one value: measured IC50 of COc1cc2c(NC3CCN(C)CC3)nc(N3CCCN(C)CC3)nc2cc1OCCOCCN(C)C
Result block: > 40 µM

###

Target entity: Histone-lysine N-methyltransferase EHMT1 (Homo sapiens)
Sequence (Q9H9B1 whole entry): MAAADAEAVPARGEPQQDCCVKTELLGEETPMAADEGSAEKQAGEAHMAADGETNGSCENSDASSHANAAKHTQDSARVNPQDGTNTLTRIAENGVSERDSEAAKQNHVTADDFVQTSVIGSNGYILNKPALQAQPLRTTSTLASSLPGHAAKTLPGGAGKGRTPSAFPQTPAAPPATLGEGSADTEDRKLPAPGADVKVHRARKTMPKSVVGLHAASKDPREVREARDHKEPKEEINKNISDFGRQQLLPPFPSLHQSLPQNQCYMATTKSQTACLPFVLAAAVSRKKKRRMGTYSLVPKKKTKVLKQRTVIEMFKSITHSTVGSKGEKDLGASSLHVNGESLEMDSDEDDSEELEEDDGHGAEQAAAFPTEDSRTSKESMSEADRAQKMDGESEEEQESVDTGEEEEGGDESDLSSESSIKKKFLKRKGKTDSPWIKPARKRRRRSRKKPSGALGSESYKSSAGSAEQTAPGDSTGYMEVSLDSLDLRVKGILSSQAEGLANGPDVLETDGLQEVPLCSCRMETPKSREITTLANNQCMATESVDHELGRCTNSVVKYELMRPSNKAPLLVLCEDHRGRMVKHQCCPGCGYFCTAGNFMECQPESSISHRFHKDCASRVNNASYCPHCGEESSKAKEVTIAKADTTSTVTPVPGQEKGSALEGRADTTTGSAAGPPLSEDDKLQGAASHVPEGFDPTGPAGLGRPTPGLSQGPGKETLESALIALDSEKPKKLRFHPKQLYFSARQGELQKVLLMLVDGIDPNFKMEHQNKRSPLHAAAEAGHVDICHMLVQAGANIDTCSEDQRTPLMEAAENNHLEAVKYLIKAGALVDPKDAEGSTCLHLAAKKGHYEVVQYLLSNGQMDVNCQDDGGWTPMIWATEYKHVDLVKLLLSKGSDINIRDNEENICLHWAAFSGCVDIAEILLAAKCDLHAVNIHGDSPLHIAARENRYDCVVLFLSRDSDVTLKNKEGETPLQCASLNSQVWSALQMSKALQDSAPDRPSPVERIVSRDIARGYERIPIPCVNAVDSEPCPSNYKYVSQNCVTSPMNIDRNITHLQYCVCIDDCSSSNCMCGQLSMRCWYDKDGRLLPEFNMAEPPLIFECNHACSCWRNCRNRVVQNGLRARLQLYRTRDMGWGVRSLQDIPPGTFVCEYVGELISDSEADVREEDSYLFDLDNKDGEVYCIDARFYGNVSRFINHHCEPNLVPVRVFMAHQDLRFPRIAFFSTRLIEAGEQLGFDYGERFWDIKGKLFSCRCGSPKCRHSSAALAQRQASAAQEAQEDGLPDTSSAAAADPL
Measurement notes: Activity at methyl transferase activity GLP by chemiluminescence based oxygen tunneling assay
Measure name: pIC50
// returns pIC50 (minus log10 of molar concentration), number only

Query block: Provide one value: measured pIC50 of COc1cc2c(NC3CCN(C)CC3)nc(N3CCCN(C)CC3)nc2cc1OCCOCCN(C)C
Result block: 7.64

###

Target entity: UniProtKB Q96KQ7
Measurement notes: Activity at methyl transferase activity G9a by enzyme coupled S-adenocylehomocystein detection assay
Note to self: IC50 under 300 nM means Y, ties and anything higher get N.

Query block: Take the compound COc1cc2c(NC3CCN(C)CC3)nc(N3CCCN(C)CC3)nc2cc1OCC1CCCNC1 (stereo unspecified) and say whether its IC50 is less than 300 nM.
Result block: N

Query block: Take the compound CCCN(C)CCCOc1cc2nc(N3CCCN(C)CC3)nc(NC3CCN(C)CC3)c2cc1OC and say whether its IC50 is less than 300 nM.
Result block: Y

Query block: Take the compound COc1cc2c(NC3CCN(C)CC3)nc(N3CCCN(C)CC3)nc2cc1OCCCCCN and say whether its IC50 is less than 300 nM.
Result block: Y

Query block: Take the compound COc1cc2c(NC3CCN(C)CC3)nc(N3CCCN(C)CC3)nc2cc1OCCCCCN(C)C and say whether its IC50 is less than 300 nM.
Result block: Y

Query block: Take the compound COc1cc2c(NC3CCN(C)CC3)nc(N3CCCN(C)CC3)nc2cc1OCCOCCN1CCCC1 and say whether its IC50 is less than 300 nM.
Result block: Y

Query block: Take the compound COc1cc2c(NC3CCN(C)CC3)nc(N3CCCN(C)CC3)nc2cc1OCCN(C)CCN(C)C and say whether its IC50 is less than 300 nM.
Result block: N

Query block: Take the compound CCN(CC)CCCOc1cc2nc(N3CCCN(C)CC3)nc(NC3CCN(C)CC3)c2cc1OC and say whether its IC50 is less than 300 nM.
Result block: Y

Query block: Take the compound COc1cc2nc(N3CCCN(C)CC3)nc(NC3CCN(C)C3)c2cc1OC (stereo unspecified) and say whether its IC50 is less than 300 nM.
Result block: N

Query block: Take the compound CNCCCOc1cc2nc(N3CCCN(C)CC3)nc(NC3CCN(C)CC3)c2cc1OC and say whether its IC50 is less than 300 nM.
Result block: Y

Query block: Take the compound COc1cc2c(NC3CCN(C)CC3)nc(N3CCCN(C)CC3)nc2cc1OCCCCN(C)C and say whether its IC50 is less than 300 nM.
Result block: Y

Query block: Take the compound COc1cc2c(NC3CCN(C)CC3)nc(N3CCCN(C)CC3)nc2cc1OCCCN1CCOCC1 and say whether its IC50 is less than 300 nM.
Result block: N
